# tested.target: T1, full-length untagged human GPNMB expressed on cells (human, UniProt Q14956 23-572)
# T1 sequence: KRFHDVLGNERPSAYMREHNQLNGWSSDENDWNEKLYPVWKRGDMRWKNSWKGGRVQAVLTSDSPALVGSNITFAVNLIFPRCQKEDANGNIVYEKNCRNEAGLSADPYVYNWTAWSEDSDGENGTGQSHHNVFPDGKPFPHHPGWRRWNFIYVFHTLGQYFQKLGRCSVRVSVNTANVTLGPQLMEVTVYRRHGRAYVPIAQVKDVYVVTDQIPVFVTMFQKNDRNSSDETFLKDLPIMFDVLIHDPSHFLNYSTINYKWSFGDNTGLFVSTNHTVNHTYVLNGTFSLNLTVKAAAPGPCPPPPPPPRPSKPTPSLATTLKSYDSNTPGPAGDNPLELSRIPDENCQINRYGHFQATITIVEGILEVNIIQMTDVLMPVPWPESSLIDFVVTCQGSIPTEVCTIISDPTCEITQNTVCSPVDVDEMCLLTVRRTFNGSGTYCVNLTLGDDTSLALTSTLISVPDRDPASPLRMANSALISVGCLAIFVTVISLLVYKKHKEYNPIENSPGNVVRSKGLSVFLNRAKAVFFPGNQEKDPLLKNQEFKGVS
# test.details: cell-based or functional assay
Entries and their measured Fold Increase GCase (max response at 1 µg/ml) follow.
Report as a plain number; the unit fold is understood.

anti-GPNMB antibody GPN-94 (antibody, V domains shown) VH: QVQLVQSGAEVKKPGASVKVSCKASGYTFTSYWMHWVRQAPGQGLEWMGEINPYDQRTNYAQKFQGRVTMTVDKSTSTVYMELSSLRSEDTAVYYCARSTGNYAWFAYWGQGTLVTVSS VL: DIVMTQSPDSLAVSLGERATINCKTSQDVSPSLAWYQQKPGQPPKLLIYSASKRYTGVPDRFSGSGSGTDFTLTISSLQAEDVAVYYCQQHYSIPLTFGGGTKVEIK
1.4

(Q) Which Fold Increase GCase (max response at 1 µg/ml) is reported for this binder? anti-GPNMB antibody GPN-85 (antibody, V domains shown) VH: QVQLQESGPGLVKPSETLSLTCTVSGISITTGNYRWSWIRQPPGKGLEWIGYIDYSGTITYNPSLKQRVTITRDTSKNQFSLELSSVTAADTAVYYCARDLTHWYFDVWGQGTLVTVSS VL: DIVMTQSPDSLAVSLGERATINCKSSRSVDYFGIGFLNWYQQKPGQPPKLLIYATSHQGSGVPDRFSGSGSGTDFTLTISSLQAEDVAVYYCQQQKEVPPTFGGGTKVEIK
(A) 1.31

(Q) Which Fold Increase GCase (max response at 1 µg/ml) is reported for this binder? anti-GPNMB antibody GPN-92 (antibody, V domains shown, humanized GPN-08) VH: QVQLVQSGAEVKKPGASVKVSCKASGYTFTSYWMHWVRQAPGQGLEWMGEINPSDGRTNYAQKFQGRVTMTVDKSTSTVYMELSSLRSEDTAVYYCARSGGNYAWFAYWGQGTLVTVSS VL: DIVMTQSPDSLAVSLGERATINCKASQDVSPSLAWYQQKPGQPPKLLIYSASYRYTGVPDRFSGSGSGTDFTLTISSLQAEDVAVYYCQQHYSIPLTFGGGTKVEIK
(A) 1.25

(Q) Which Fold Increase GCase (max response at 1 µg/ml) is reported for this binder? anti-GPNMB antibody GPN-95 (antibody, V domains shown, also called PGN-95) VH: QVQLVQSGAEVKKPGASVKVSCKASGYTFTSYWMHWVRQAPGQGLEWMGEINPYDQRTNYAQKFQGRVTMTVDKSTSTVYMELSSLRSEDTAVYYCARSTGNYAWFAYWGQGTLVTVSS VL: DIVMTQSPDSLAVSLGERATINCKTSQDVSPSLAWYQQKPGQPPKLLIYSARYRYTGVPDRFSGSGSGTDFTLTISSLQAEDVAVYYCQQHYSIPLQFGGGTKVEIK
(A) 1.33

(Q) Which Fold Increase GCase (max response at 1 µg/ml) is reported for this binder? anti-GPNMB antibody GPN-93 (antibody, V domains shown) VH: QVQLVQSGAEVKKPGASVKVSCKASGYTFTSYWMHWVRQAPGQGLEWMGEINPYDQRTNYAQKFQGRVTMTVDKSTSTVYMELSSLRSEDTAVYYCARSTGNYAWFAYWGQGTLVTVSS VL: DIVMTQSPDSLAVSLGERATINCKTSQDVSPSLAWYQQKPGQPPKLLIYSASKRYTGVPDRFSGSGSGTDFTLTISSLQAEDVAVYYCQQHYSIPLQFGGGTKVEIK
(A) 1.45

// provenance: patent US20250270343A1
